- SYSTEM NAME: T1, EDIII-DV2 (Dengue virus serotype 2, UniProt P14337 581-673)
- T1 construct: also called EDIII of DV2; envelope glycoprotein domain III of Dengue virus serotype 2
- EXPERIMENTAL DETAILS: indirect ELISA, coated recombinant EDIII
MEASUREMENT TYPE: binding result

[[record]]
binder = "4E11 VH Ala55Asp single mutant (antibody, V domains shown, also called A55D) VH: VKLLEQSGAELVKPGASVRLSCTASGFNIKDTYMSWVKQRPEQGLEWIGRIDPDNGDTKYDPKFQGKATITADTSSNTAYLHLSSLTSGDTAVYYCSRGWEGFAYWGQGTLVTVSA VL: ELVMTQTPASLAVSLGQRATISCRASENVDRYGNSFMHWYQQKAGQPPKLLIYRASNLESGIPARFSGSGSRTDFTLTINPVEADDVATYFCQRSNEVPWTFGGGTKLEIKR"
result = "binds"

[[record]]
binder = "4E11 VL Asn57Ser single mutant (antibody, V domains shown) VH: VKLLEQSGAELVKPGASVRLSCTASGFNIKDTYMSWVKQRPEQGLEWIGRIDPANGDTKYDPKFQGKATITADTSSNTAYLHLSSLTSGDTAVYYCSRGWEGFAYWGQGTLVTVSA VL: ELVMTQTPASLAVSLGQRATISCRASENVDRYGNSFMHWYQQKAGQPPKLLIYRASSLESGIPARFSGSGSRTDFTLTINPVEADDVATYFCQRSNEVPWTFGGGTKLEIKR"
result = "binds"

[[record]]
binder = "4E11 VL-S60W single mutant (antibody, V domains shown) VH: VKLLEQSGAELVKPGASVRLSCTASGFNIKDTYMSWVKQRPEQGLEWIGRIDPANGDTKYDPKFQGKATITADTSSNTAYLHLSSLTSGDTAVYYCSRGWEGFAYWGQGTLVTVSA VL: ELVMTQTPASLAVSLGQRATISCRASENVDRYGNSFMHWYQQKAGQPPKLLIYRASNLEWGIPARFSGSGSRTDFTLTINPVEADDVATYFCQRSNEVPWTFGGGTKLEIKR"
result = "binds"

[[record]]
binder = "4E11 VL-E59Q single mutant (antibody, V domains shown) VH: VKLLEQSGAELVKPGASVRLSCTASGFNIKDTYMSWVKQRPEQGLEWIGRIDPANGDTKYDPKFQGKATITADTSSNTAYLHLSSLTSGDTAVYYCSRGWEGFAYWGQGTLVTVSA VL: ELVMTQTPASLAVSLGQRATISCRASENVDRYGNSFMHWYQQKAGQPPKLLIYRASNLQSGIPARFSGSGSRTDFTLTINPVEADDVATYFCQRSNEVPWTFGGGTKLEIKR"
result = "binds"

[[record]]
binder = "4E11 VL Glu59Asn single mutant (antibody, V domains shown, also called E59N) VH: VKLLEQSGAELVKPGASVRLSCTASGFNIKDTYMSWVKQRPEQGLEWIGRIDPANGDTKYDPKFQGKATITADTSSNTAYLHLSSLTSGDTAVYYCSRGWEGFAYWGQGTLVTVSA VL: ELVMTQTPASLAVSLGQRATISCRASENVDRYGNSFMHWYQQKAGQPPKLLIYRASNLNSGIPARFSGSGSRTDFTLTINPVEADDVATYFCQRSNEVPWTFGGGTKLEIKR"
result = "binds"

[[record]]
binder = "4E11 VL Ser60Tyr single mutant (antibody, V domains shown, also called S60Y) VH: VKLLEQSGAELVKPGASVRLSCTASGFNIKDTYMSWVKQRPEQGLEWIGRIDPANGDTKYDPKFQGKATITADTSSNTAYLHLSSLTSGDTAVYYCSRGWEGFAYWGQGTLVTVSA VL: ELVMTQTPASLAVSLGQRATISCRASENVDRYGNSFMHWYQQKAGQPPKLLIYRASNLEYGIPARFSGSGSRTDFTLTINPVEADDVATYFCQRSNEVPWTFGGGTKLEIKR"
result = "binds"


GET /values?readout=binding result&item= 4E11 VL Ser60Arg single mutant (antibody, V domains shown, also called S60R) VH: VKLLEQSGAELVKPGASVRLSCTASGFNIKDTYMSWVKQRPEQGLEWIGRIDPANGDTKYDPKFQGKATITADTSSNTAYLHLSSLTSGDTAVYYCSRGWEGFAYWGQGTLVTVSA VL: ELVMTQTPASLAVSLGQRATISCRASENVDRYGNSFMHWYQQKAGQPPKLLIYRASNLERGIPARFSGSGSRTDFTLTINPVEADDVATYFCQRSNEVPWTFGGGTKLEIKR
binds

Now consider 4E11 VL-R31K single mutant (antibody, V domains shown) VH: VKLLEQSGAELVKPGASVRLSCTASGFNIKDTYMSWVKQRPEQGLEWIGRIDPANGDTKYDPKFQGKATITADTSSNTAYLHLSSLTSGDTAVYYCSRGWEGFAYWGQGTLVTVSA VL: ELVMTQTPASLAVSLGQRATISCRASENVDKYGNSFMHWYQQKAGQPPKLLIYRASNLESGIPARFSGSGSRTDFTLTINPVEADDVATYFCQRSNEVPWTFGGGTKLEIKR .
binds
